- System: TRPC4 (mouse), co-expressed with 5HT1a in HEK293
- Assay Details: enhancement of serotonin-evoked TRPC4 response – cell-based, second counter screen, HEK293 TRPC4/5HT1a, Fluo-4, counter-screen for TRPC4 potentiator project, confirmation (AID 434979)
- Experimental Context: Fluo-4 calcium flux, at 10 µM, serotonin added at its EC20 dose
Calls of active or inactive are those of the source.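 How the source made its calls: active means signal rise over 3 SD above mean of control wells given weak agonist, in both repeats and first screen; inactive means the rest.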
Mark one answer only. Choices: Yes for active, No for inactive

stdin: What call does the record list for COc1ccc(C2NC(C(=O)O)Cc3c2[nH]c2ccccc32)cc1CN1CCN(c2ccc(F)cc2)CC1 (stereo not drawn) ?
stdout: No

====

- Target Desc: Short transient receptor potential channel 4 (Mus musculus) (UniProt Q9QUQ5)
- Assay Details: calcium flux activators in TRPC4/5HT1a cells, counter-screen for TRPC4 activator project, cell-based, second counter screen, HEK293 TRPC4/5HT1a, Fluo-4 (AID 434977)
- Experimental Context: Fluo-4 calcium flux, at 10 µM
Active and inactive are the calls of the source.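 The calls were made as follows: active = calcium signal rise above buffer-control mean plus 5 SD in both duplicates, and also a hit in the primary screen; inactive = the rest.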
Mark one answer only. Choices: active, inactive

Answered cases to consult:
>>> discrete_label("O=C(CN1CCN(c2ncc(C(F)(F)F)cc2Cl)CC1)N1CCN(c2ncc(C(F)(F)F)cc2Cl)CC1")
"active"
>>> discrete_label("CN(C)CCCSc1nc(-c2ccccc2)nc2c1CCC2")
"inactive"
>>> discrete_label("COc1ccc(CNC(=O)C(C)NCc2ccc(S(N)(=O)=O)cc2)cc1 (stereo not given)")
"inactive"
>>> discrete_label("O=C(NCCc1ccccn1)c1ccc(COc2ccccc2)o1")
"active"

As a next step, examine the molecule that follows.
stdin: What call does the record list for `COc1ccc(CNc2ccc(Cl)cc2)cc1Cn1ccnc1` ?
stdout: inactive
